target: AmpC (Enterobacter cloacae, UniProt P05364); assay: AmpC nitrocefin assay; assay type: biochemical, E.cloacae
Sequence (P05364 21-381): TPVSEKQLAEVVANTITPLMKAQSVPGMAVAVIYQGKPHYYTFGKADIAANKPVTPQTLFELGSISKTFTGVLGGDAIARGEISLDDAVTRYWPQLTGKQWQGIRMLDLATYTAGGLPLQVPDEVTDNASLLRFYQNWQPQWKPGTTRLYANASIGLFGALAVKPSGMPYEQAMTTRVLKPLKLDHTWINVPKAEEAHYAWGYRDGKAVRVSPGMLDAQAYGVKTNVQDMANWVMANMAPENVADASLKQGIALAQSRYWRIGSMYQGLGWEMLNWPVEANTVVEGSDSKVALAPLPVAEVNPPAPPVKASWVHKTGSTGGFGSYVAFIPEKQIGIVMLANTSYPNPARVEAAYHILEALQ
pIC50: −log10 of the molar value.
Reported pIC50 values are given for each entry in this list.

These solved cases illustrate the format of a correct answer.
INSERT INTO measurements (compound, endpoint_result) VALUES
  ('O=C1c2c(O)ccc(O)c2C(=O)c2c(NCCNCCO)ccc(NCCNCCO)c21 [Mitoxantrone]', '< 4.60'),
  ('C#CCCOCc1nn[nH]c1CNS(=O)(=O)c1ccc(I)cc1 [Compound 1]', '< 4.60');

Please find the next compound below.
Query COCc1nn[nH]c1CNS(=O)(=O)c1ccc(I)cc1 [Compound 2] yields pIC50 of < 4.60

* * *

target: AmpC (Enterobacter cloacae); test: AmpC nitrocefin assay; format: biochemical, E.cloacae; settings: read-out: IC50 AmpC Nitrocefin
measured_quantity: IC50

Query O=C(O)c1cc[c]([Hg][Cl])cc1 yields IC50 of > 25 µM

* * *

test system: resistant E. coli (BL21/VIM-2); assay: Imipenem MIC potentiation by a single dose of inhibitor; assay type: cell-based; conditions: BL21+VIM-2
Reported Imipenem MIC @ 50 μM of compound values are given for each entry in this list.
Response body: numeric value in µg/mL, unit text excluded.

INSERT INTO measurements (smiles_record, measured_quantity, endpoint_result) VALUES
  ('O=C(O)c1cc[c]([Hg][Cl])cc1', 'Imipenem MIC @ 50 μM of compound', 0.2),
  ('O=C1c2c(O)ccc(O)c2C(=O)c2c(NCCNCCO)ccc(NCCNCCO)c21', 'Imipenem MIC @ 50 μM of compound', 0.2),
  ('COCc1nn[nH]c1CNS(=O)(=O)c1ccc(I)cc1', 'Imipenem MIC @ 50 μM of compound', 1.9);

Please find the next compound below.
Query C#CCCOCc1nn[nH]c1CNS(=O)(=O)c1ccc(I)cc1 yields Imipenem MIC @ 50 μM of compound of 1.9

* * *

target: TEM-1 (Escherichia coli); assay: TEM-1 nitrocefin assay; assay type: biochemical; conditions: read-out: IC50 TEM-1 Nitrocefin
Sequence (P62593 24-286 limits assumed): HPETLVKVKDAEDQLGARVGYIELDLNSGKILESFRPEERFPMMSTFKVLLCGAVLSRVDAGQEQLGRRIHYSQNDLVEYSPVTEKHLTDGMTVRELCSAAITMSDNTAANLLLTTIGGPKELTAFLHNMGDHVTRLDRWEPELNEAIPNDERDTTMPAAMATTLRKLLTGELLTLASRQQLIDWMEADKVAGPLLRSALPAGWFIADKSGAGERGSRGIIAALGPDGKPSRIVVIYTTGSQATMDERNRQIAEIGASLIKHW
pIC50: −log10 of the molar value.
measured_quantity: pIC50

Query O=C(O)c1cc[c]([Hg][Cl])cc1 yields pIC50 of < 4.60

* * *

Record type: pIC50 measurement. Applies to: IMP-1 (Serratia marcescens)
pIC50: −log10 of the molar value.

Query C#CCCOCc1nn[nH]c1CNS(=O)(=O)c1ccc(I)cc1 yields pIC50 of < 4.25

Query O=C1c2c(O)ccc(O)c2C(=O)c2c(NCCNCCO)ccc(NCCNCCO)c21 yields pIC50 of < 4.25

Query COCc1nn[nH]c1CNS(=O)(=O)c1ccc(I)cc1 yields pIC50 of < 4.25

Measured values drawn from paper PMC2759276 for this set.
